# system-tested: CDK4/Cyclin D1 (Homo sapiens)
# Sequence (P11802 whole entry): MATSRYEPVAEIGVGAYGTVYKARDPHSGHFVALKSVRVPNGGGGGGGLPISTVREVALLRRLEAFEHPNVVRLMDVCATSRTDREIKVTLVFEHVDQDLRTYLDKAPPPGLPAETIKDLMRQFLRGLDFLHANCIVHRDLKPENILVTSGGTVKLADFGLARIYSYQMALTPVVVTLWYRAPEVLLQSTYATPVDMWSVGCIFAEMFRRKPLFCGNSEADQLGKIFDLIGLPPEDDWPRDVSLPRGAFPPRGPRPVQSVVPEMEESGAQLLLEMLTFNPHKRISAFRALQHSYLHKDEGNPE
# Sequence (P24385 whole entry partner): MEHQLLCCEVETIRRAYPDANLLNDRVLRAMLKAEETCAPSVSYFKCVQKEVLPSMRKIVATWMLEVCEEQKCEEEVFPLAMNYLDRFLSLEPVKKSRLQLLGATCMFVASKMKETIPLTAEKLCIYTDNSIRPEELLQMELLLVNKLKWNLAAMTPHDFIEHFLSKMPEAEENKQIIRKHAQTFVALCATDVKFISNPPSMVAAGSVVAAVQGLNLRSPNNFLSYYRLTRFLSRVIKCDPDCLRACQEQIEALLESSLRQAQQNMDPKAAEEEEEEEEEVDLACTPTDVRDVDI
# experimental-protocol: CDK Inhibition Assay (Scintillation Proximity Assay, GST-Retinoblastoma substrate)
# condition-label: in-vitro kinase assay, incorporation of [γ-33-P]-ATP into GST-Rb, 60 minutes at room temperature; read-out: CDK4 inhibitory activity IC50
Assignment: determine reported pIC50 for the given compounds.
Please express pIC50 as -log10 of the molar concentration.

Look at this compound and give its reported pIC50. Cc1ccc(Cl)c(N(CC#N)c2cc(Nc3ccc(OCC(O)CN(C)C)cc3)ncn2)c1 (centres unmarked) [Example 2] 7.15

Given the entry Cc1ccc(N(CC#N)c2cc(Nc3ccc(OCC(O)CN(C)C)cc3)ncn2)c(Br)c1 (centres unmarked) [Example 1] , report its measured pIC50. 6.96
